quantity-measured: logP

Below, each entry is followed by its recorded logP result.
INSERT INTO results (compound, quantitative_result) VALUES
  ('O=C(OCCNC(=O)C(F)(F)F)c1ccccc1', 2.25),
  ('CCNC(=O)[C@@H](NC(=O)CNC(=O)c1ccccc1)C(C)C', 1.05),
  ('O=C(OC1C2C=CC1C=C2)c1ccccc1 (stereo not given)', 3.03),
  ('O=C(OCCO)c1ccccc1', 1.12);

I. CCNC(=O)CNC(=O)c1ccccc1
II. O=[N+]([O-])c1ccc(OCCN2CCOCC2)cc1
Given the listed items, does I or II have the lesser reported logP? Returns: label corresponding to the selected item.
I
